Assay: elimination half-life of aminoguanidine in plasma of patients (HPLC assay) for measurement of kidney function
Type: in vivo, human
Conditions: human, plasma, po, 300 mg, patient 18, GFR 131.3; 300 mg oral aminoguanidine hydrochloride; plasma at 10, 14, 18 hours; read-out: AG T1/2 (converted)
ENDPOINT LABEL: half-life (h)
Numbers only here, please. The scale is h.

Q: Given the entry N=C(N)NN [aminoguanidine] , report its measured half-life.
Ans: 7.05

* * *

Assay: elimination half-life of aminoguanidine in plasma of patients (HPLC assay) for measurement of kidney function
Format: in vivo, human
Details: human, plasma, po, 300 mg, patient 5, GFR 31.1; 300 mg oral aminoguanidine hydrochloride; plasma at 10, 14, 18 hours; read-out: AG T1/2 (converted)
ENDPOINT LABEL: half-life (h)
Numbers only here, please. The scale is h.

Q: Given the entry `N=C(N)NN` , report its measured half-life.
Ans: 19
